Literature compilation of Ki measurements on Prothrombin (Homo sapiens, UniProt P00734).

Cc1cc(I)c(O)c(C(=O)Nc2ccc(NC(=N)N)cc2)c1; > 450 µM
COc1ccc(-n2nc(C(F)(F)F)cc2C(=O)Nc2ccc(-c3ccccc3S(N)(=O)=O)cn2)cc1; > 21 µM
CC(C)(C)c1ccc(C(=O)NCCCc2cc(C(=N)N)ccc2O)cc1; > 4 µM

Exam item: What Ki value was documented for this compound, N=C(N)c1cccc(CN2CC[C@H](NS(=O)(=O)c3cc4cccnc4s3)C2=O)c1 ?
Marked response: > 4 µM

* * *

Literature compilation of Ki measurements on Prothrombin (Homo sapiens).

The examples below pair each entry with its known result.
CCOc1cc(C(Nc2ccc3cnccc3c2)C(=O)NS(=O)(=O)c2ccccc2)ccc1OC(C)C (centres undefined); > 13 µM
CS(=O)(=O)NCC1(C(=O)Nc2ccc(-c3ccccc3S(N)(=O)=O)cn2)CC(c2ccc(Cl)c(N)c2)=NO1 (single isomer, unassigned; (+)); > 21 µM
N=C(N)c1cccc(Oc2ccc(N)c(Oc3cccc(C(=N)N)c3)n2)c1; > 5 µM

Next up:
Exam item: What Ki value was documented for this compound, COc1ccc(-n2nc(C(N)=O)cc2C(=O)Cc2ccc(-n3ccccc3=O)cc2F)cc1 ?
Marked response: > 15 µM
